Property: Kd; scope: individual binders
biological target: T1, Monomeric 8-histidine tagged human EGFRvIII extracellular domain (human, UniProt P00533 298-645); test: SPR, captured by anti-mouse Fc, 37 C
T1 construct: Analyte in all SPR assays; not shown: 8-histidine tag
measurementLabel: Kd (nM)

>  <binder>
12H6 (antibody, V domains shown, Hybridoma supernatant (AlivaMab mouse); captured/detected via mouse Fc) VH: QVTLKESGPVLVKPTETLTLTCTVSGFSLSNARMGVSWIRQPPGKALEWLAHIFSTDEKSIRRSLRSRLTLSKDTSKSQVVLTMTNMDPVDTATYYCARDSSNYEGYFDYWGQGTLVTVSS VL: EVVMTQSPATLSVSPGERATLSCRASQGVSSNFAWYQQRPGQSPRLLLYGASTRATGVPGRFSGSGSGTENILTISSLQSEDFAIYFCQQYKDWPFTFGPGSKVDIK

>  <unitAnnotation>
nM

>  <valueReported>
12.4

$$$$
>  <binder>
21E7 (antibody, V domains shown, Hybridoma supernatant (AlivaMab mouse); captured/detected via mouse Fc) VH: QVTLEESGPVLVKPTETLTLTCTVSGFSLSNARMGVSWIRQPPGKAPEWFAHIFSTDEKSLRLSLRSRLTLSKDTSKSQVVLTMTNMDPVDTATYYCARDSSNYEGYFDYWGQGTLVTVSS VL: DVVLTQSPATLSVSPGERATLSCRASQSVNSNLAWYQQNPGQAPRLLIFGSSTRATGIPASFSGSGSGTEFTLTINSLQSEHSAVYYCQQYNDWPFTFGPGTKVDIK

>  <unitAnnotation>
nM

>  <valueReported>
19.9

$$$$
>  <binder>
26B9 (antibody, V domains shown, Hybridoma supernatant (AlivaMab mouse); captured/detected via mouse Fc) VH: EVQLVESWGVLVKPGGSLRLSCAASGFIFNNAWMSWVRQAPGKGLEWIGRIKSKSDGGTTDYAAPVKDRFTISRDDSKDTLYLQMNGLKTEDTAVYFCTTAPGGPFDYWGQGTLVTVSS VL: DIVLTQSPLSLPVTPGEPASISCRSSQSLLHRDGFNYLDWFLQKPGQSPQLLIYLASSRASGVPDRFSGSDSGTDFTLKISRVEAEDVGVYYCMQALQTPITFGQGTRLEIK

>  <unitAnnotation>
nM

>  <valueReported>
244

$$$$
